I'd be grateful if you could share measured pIC50 for these entries.
Target: CDK12/CycK (Homo sapiens, UniProt Q9NYV4)
Sequence (Q9NYV4 with tags, fused parts or gaps): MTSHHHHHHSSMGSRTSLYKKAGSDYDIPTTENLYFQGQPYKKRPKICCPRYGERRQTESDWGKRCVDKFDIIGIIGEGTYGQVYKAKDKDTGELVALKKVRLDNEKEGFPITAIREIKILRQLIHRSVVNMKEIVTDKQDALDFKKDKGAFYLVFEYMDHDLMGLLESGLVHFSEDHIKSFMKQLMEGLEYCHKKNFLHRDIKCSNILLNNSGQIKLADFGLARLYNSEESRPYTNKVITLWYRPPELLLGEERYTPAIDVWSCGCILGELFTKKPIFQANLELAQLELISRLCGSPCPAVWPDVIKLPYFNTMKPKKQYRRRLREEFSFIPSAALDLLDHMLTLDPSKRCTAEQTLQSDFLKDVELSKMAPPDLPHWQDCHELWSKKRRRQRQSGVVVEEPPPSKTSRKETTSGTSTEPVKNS
Sequence (O75909 1-300 partner limits assumed): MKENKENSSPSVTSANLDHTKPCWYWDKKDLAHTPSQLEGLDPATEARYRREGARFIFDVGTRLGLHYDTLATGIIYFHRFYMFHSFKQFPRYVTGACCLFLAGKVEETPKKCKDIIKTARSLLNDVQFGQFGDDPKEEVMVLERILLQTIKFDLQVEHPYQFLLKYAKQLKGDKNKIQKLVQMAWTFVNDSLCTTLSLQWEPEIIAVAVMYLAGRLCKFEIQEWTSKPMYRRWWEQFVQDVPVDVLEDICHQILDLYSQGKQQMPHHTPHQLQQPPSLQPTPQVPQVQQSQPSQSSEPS
Experiment: CDK12/CycK high ATP kinase assay (TR-FRET, 2 mM ATP)
Conditions: 2 mM ATP (high ATP); median; read-out: CDK12/CyclinK, 2 mM ATP (high ATP), IC50-[mol/l] (median)
pIC50: −log10 of the molar value.

# Compound, Metric, Assay value
records = [
    ("c1ccc2[nH]c(CNc3nc(N4C[C@@H]5CCCN[C@@H]5C4)nc4c(C5CC5)cnn34)nc2c1 [Example 249]", "pIC50", "< 4.77"),
    ("c1ccc2[nH]c(CNc3nc(N4CCOCC4)nc4c(-c5ccncc5)cnn34)nc2c1 [Example 111]", "pIC50", "< 5.79"),
    ("CN(C)C1CCN(c2nc(NCc3nc4ccccc4[nH]3)n3ncc(Br)c3n2)CC1 [Example 201]", "pIC50", "< 4.70"),
    ("CN1CCN(c2nc(NCc3nc4cc(F)ccc4[nH]3)n3ncc(Br)c3n2)CC1 [Example 134]", "pIC50", "< 4.75"),
    ("Cc1cnn2c(NCc3nc4ccccc4[nH]3)nc(N(C)CC(C)(C)O)nc12 [Example 397]", "pIC50", "< 4.76"),
    ("Brc1cnn2c(NCc3nc4ccccc4[nH]3)nc(N3CCC3)nc12 [Example 143]", "pIC50", "< 4.70"),
]

Can you give me pIC50 for all of these, one by one?
1. Brc1cnn2c(NCc3nc4ccccc4[nH]3)nc(N3CC4(COC4)C3)nc12 [Example 48]
2. Brc1cnn2c(NCc3nc4ccccc4[nH]3)nc(N3CCC4(CCCN4)C3)nc12 (stereo not drawn) [Example 215]
3. CN[C@@H]1CCN(c2nc(NCc3nc4ccccc4[nH]3)n3ncc(Br)c3n2)C1 [Example 253]

[A]
1: < 5.24; 2: < 4.70; 3: < 4.70
